Target: D(2) dopamine receptor (Homo sapiens)
Sequence (P14416 whole entry): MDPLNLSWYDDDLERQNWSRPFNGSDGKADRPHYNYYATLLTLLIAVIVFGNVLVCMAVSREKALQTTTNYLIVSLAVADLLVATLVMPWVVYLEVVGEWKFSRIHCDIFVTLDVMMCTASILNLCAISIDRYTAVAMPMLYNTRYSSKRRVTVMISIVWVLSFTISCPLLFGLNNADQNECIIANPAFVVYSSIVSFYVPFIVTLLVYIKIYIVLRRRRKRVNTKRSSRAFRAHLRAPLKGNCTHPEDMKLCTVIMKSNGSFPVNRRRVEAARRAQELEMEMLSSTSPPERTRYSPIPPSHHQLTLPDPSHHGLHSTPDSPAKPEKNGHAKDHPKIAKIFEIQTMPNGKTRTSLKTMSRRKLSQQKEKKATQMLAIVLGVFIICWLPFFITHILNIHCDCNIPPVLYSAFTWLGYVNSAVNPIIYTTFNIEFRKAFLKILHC
Experiment: Displacement of [3H]methylspiperone from human dopamine D2 receptor expressed in CHO cells
Type: cell-based
# Lookup of reported log10 Ki keyed by entry
measured endpoint: log10 Ki (log10 of the value in nM)

- input smiles: "CN1CCN(C2=Nc3cc(Cl)ccc3N(NC(=O)CCc3ccccc3)c3ccccc32)CC1"
  target under test: "D(2) dopamine receptor (Homo sapiens)"
  log10 Ki: 2.79
- input smiles: "CN1CCN(C2=Nc3cc(Cl)ccc3N(NC(=O)c3ccccc3Oc3ccccc3)c3ccccc32)CC1"
  target under test: "D(2) dopamine receptor (Homo sapiens)"
  log10 Ki: 2.63
- input smiles: "CN1CCN(C2=Nc3cc(Cl)ccc3N(NC(=O)c3ccc(Cl)cc3)c3ccccc32)CC1"
  target under test: "D(2) dopamine receptor (Homo sapiens)"
  log10 Ki: 3.97
- input smiles: "CN1CCN(C2=Nc3cc(Cl)ccc3N(NC(=O)c3cccc4ccccc34)c3ccccc32)CC1"
  target under test: "D(2) dopamine receptor (Homo sapiens)"
  log10 Ki: 2.66
- input smiles: "COc1ccc(CCC(=O)NN2c3ccc(Cl)cc3N=C(N3CCN(C)CC3)c3ccccc32)cc1Cl"
  target under test: "D(2) dopamine receptor (Homo sapiens)"
  log10 Ki: 2.76
- input smiles: "CN1CCN(C2=Nc3cc(Cl)ccc3N(NC(=O)c3ccccc3N3CCCCC3)c3ccccc32)CC1"
  target under test: "D(2) dopamine receptor (Homo sapiens)"
  log10 Ki: 2.33
- input smiles: "CN1CCN(C2=Nc3cc(Cl)ccc3N(NC(=O)c3cccc(F)c3)c3ccccc32)CC1"
  target under test: "D(2) dopamine receptor (Homo sapiens)"
  log10 Ki: 2.96
- input smiles: "CN1CCN(C2=Nc3cc(Cl)ccc3N(NC(=O)c3cc(Cl)cc(Cl)c3)c3ccccc32)CC1"
  target under test: "D(2) dopamine receptor (Homo sapiens)"
  log10 Ki: 2.78
- input smiles: "Cc1cccc(N)c1C(=O)NN1c2ccc(Cl)cc2N=C(N2CCN(C)CC2)c2ccccc21"
  target under test: "D(2) dopamine receptor (Homo sapiens)"
  log10 Ki: 3.01
- input smiles: "CN1CCN(C2=Nc3cc(Cl)ccc3N(NC(=O)c3ccc(Br)cc3)c3ccccc32)CC1"
  target under test: "D(2) dopamine receptor (Homo sapiens)"
  log10 Ki: 3.38
- input smiles: "COc1cccc(C(=O)NN2c3ccc(Cl)cc3N=C(N3CCN(C)CC3)c3ccccc32)c1"
  target under test: "D(2) dopamine receptor (Homo sapiens)"
  log10 Ki: 3.05
- input smiles: "CN1CCN(C2=Nc3cc(Cl)ccc3N(NC(=O)c3ccc(Cl)c(Cl)c3)c3ccccc32)CC1"
  target under test: "D(2) dopamine receptor (Homo sapiens)"
  log10 Ki: 3.81
- input smiles: "CN1CCN(C2=Nc3cc(Cl)ccc3N(NC(=O)c3c(Cl)cc(Cl)cc3Cl)c3ccccc32)CC1"
  target under test: "D(2) dopamine receptor (Homo sapiens)"
  log10 Ki: 2.59
- input smiles: "CN1CCN(C2=Nc3cc(Cl)ccc3N(NC(=O)c3ccccc3Cl)c3ccccc32)CC1"
  target under test: "D(2) dopamine receptor (Homo sapiens)"
  log10 Ki: 2.26
- input smiles: "CCOc1c(C(=O)NN2c3ccc(Cl)cc3N=C(N3CCN(C)CC3)c3ccccc32)sc2ccccc12"
  target under test: "D(2) dopamine receptor (Homo sapiens)"
  log10 Ki: 2.29
- input smiles: "CN1CCN(C2=Nc3cc(Cl)ccc3N(NC(=O)c3ccc4ccccc4n3)c3ccccc32)CC1"
  target under test: "D(2) dopamine receptor (Homo sapiens)"
  log10 Ki: 2.97
- input smiles: "CCOc1ccc2ccccc2c1C(=O)NN1c2ccc(Cl)cc2N=C(N2CCN(C)CC2)c2ccccc21"
  target under test: "D(2) dopamine receptor (Homo sapiens)"
  log10 Ki: 2.44
- input smiles: "CCOc1csc(C(=O)NN2c3ccc(Cl)cc3N=C(N3CCN(C)CC3)c3ccccc32)c1"
  target under test: "D(2) dopamine receptor (Homo sapiens)"
  log10 Ki: 2.26
